Data provenance is ChEMBL document CHEMBL4043167.

test: Kinetic solubility of the compound by chemiluminescent nitrogen detection assay; format: physicochemical; conditions: read-out: Kinetic_solubility
Readout Type: solubility kinetic

{"Structure Smiles": "COCCOc1nn(C)c2ncnc(NS(=O)(=O)c3cccc(Cl)c3Cl)c12", "Assay Value": "≥ 463 µM"}
{"Structure Smiles": "COc1nn(C)c2nc(C)nc(NS(=O)(=O)c3cccc(Cl)c3Cl)c12", "Assay Value": "≥ 557 µM"}
{"Structure Smiles": "COc1nn(C)c2nc(NC(C)C)nc(NS(=O)(=O)c3cccc(Cl)c3Cl)c12", "Assay Value": "≥ 551 µM"}
{"Structure Smiles": "O=S(=O)(Nc1ncnc2[nH]nc(O)c12)c1cccc(Cl)c1Cl", "Assay Value": "≥ 234 µM"}
{"Structure Smiles": "COc1nn(C)c2nc(N(C)C)nc(NS(=O)(=O)c3cccc(Cl)c3Cl)c12", "Assay Value": "≥ 626 µM"}
{"Structure Smiles": "COc1nn(C)c2ncnc(NS(=O)(=O)c3cccc(Cl)c3Cl)c12", "Assay Value": "≥ 581 µM"}

* * *

Recorded solubility kinetic, one value per entry.
experiment: Kinetic solubility of the compound by chemiluminescent nitrogen detection assay; type: physicochemical; conditions: read-out: Kinetic_solubility

{"Structure Smiles": "Cn1ncc2c(NS(=O)(=O)c3cccc(Cl)c3Cl)ccnc21", "solubility kinetic": "≥ 310 µM"}
{"Structure Smiles": "CCn1[nH]c2ncnc(NS(=O)(=O)c3cccc(Cl)c3Cl)c2c1=O", "solubility kinetic": "≥ 383 µM"}
{"Structure Smiles": "CCOc1n[nH]c2ncnc(NS(=O)(=O)c3cccc(Cl)c3Cl)c12", "solubility kinetic": "≥ 438 µM"}
{"Structure Smiles": "COc1nn(C)c2ncnc(NS(=O)(=O)c3ccc(Cl)s3)c12", "solubility kinetic": "≥ 538 µM"}
{"Structure Smiles": "CNC(=O)Cn1nc(OC)c2c(NS(=O)(=O)c3cccc(Cl)c3Cl)ncnc21", "solubility kinetic": "≥ 509 µM"}
{"Structure Smiles": "COc1nn(C)c2nc(NCCN(C)C)nc(NS(=O)(=O)c3cccc(Cl)c3Cl)c12", "solubility kinetic": "≥ 444 µM"}
{"Structure Smiles": "COc1nn(C)c2nc(N)nc(NS(=O)(=O)c3cccc(Cl)c3Cl)c12", "solubility kinetic": "≥ 649 µM"}
{"Structure Smiles": "COc1nn(C)c2nc(NC3COC3)nc(NS(=O)(=O)c3cccc(Cl)c3Cl)c12", "solubility kinetic": "≥ 712 µM"}
{"Structure Smiles": "COc1nn(CC(N)=O)c2ncnc(NS(=O)(=O)c3cccc(Cl)c3Cl)c12", "solubility kinetic": "≥ 490 µM"}
{"Structure Smiles": "COCCn1nc(OC)c2c(NS(=O)(=O)c3cccc(Cl)c3Cl)ncnc21", "solubility kinetic": "≥ 442 µM"}
{"Structure Smiles": "COCCNc1nc(NS(=O)(=O)c2cccc(Cl)c2Cl)c2c(OC)nn(C)c2n1", "solubility kinetic": "≥ 441 µM"}
{"Structure Smiles": "COc1nn(CC(=O)O)c2ncnc(NS(=O)(=O)c3cccc(Cl)c3Cl)c12", "solubility kinetic": "≥ 483 µM"}
